Reference source: patent US11478451B1

tested on: SUDHL5 cells; assay: Induction of cytotoxicity (CellTiter-Glo, 5 h), SUDHL5; details: read-out: Cytotox SUDHL5 [M] (median); IC50, median; SUDHL5, 5 h
// IC50 lookup, one value per entry
property-name: IC50

{"compound": "CCc1c2c(nn1C)CCCCCCn1c(C(=O)O)c(CCCOc3cccc4ccccc34)c3ccc(Cl)c-2c31 (single isomer, unassigned; enantiomer 2)", "recorded-value": "4.8e-07 M"}
{"compound": "CCc1c2c(nn1C)COCC(O)CCn1c(C(=O)O)c(CCCOc3cccc4cc(F)ccc34)c3ccc(Cl)c-2c31 (centres unmarked) [Example 100]", "recorded-value": "1.8e-07 M"}
{"compound": "CCc1c2c(nn1C)CN(C)CC(F)(F)CCn1c(C(=O)O)c(CCCOc3cccc4cc(F)ccc34)c3ccc(Cl)c-2c31 (single isomer, unassigned) [Example 128]", "recorded-value": "2.3e-06 M"}
{"compound": "Cc1c2c(nn1C)COCCCCn1c(C(=O)O)c(CCCOc3cccc4cc(F)ccc34)c3ccc(Cl)c-2c31 (single isomer, unassigned; enantiomer 1) [Example 15]", "recorded-value": "1.4e-07 M"}
{"compound": "Cc1c2c(nn1C)CN(C)CCCCn1c(C(=O)O)c(CCCOc3cccc4cc(F)ccc34)c3ccc(Cl)c-2c31 (single isomer, unassigned; enantiomer 2)", "recorded-value": "9.3e-06 M"}

====

system: SUDHL10 cells; assay: Induction of cytotoxicity (CellTiter-Glo, 5 h), SUDHL10; settings: read-out: Cytotox SUDHL10 [M] (median); IC50, median; SUDHL10, 5 h; listed as 097

{"compound": "CCc1c2c(nn1C)COCCC(F)(F)Cn1c(C(=O)O)c(CCCOc3cccc4cc(F)ccc34)c3ccc(Cl)c-2c31 (single isomer, unassigned)", "IC50 (M)": "4.2e-07"}

====

tested on: SUDHL5 cells; assay: Induction of cytotoxicity (CellTiter-Glo, 5 h), SUDHL5; details: read-out: Cytotox SUDHL5 [M] (median); IC50, median; SUDHL5, 5 h; listed as 094

{"input-smiles": "Cc1c2c(nn1C)COCCC(F)(F)Cn1c(C(=O)O)c(CCCOc3cccc4ccccc34)c3ccc(Cl)c-2c31", "IC50": "2.9e-06 M"}

====

system: SUDHL5 cells; experiment: Induction of cytotoxicity (CellTiter-Glo, 5 h), SUDHL5; settings: read-out: Cytotox SUDHL5 [M] (median); IC50, median; SUDHL5, 5 h; listed as 080

{"molecule": "Cc1c2c(nn1C)COCC1CCC1Cn1c(C(=O)O)c(CCCOc3cccc4ccccc34)c3ccc(Cl)c-2c31 (single isomer, unassigned) [Example 80]", "scale-unit": "M", "IC50": "5.8e-07"}

====

test system: SUDHL5 cells; test: Induction of caspase-3/7 activity (Caspase-Glo 3/7), SUDHL5; format: cell-based; conditions: EC50, median; SUDHL5, 3 h treatment
property-name: log10(EC50) (log10 of the value in nM)

{"compound": "CCc1c2c(nn1C)COCC1CC1Cn1c(C(=O)O)c(CCCOc3cccc4cc(F)ccc34)c3ccc(Cl)c-2c31 (single isomer, unassigned; (-)) [Example 105]", "log10(EC50)": 2.11}
{"compound": "CCc1c2c(nn1C)COCC1CC1Cn1c(C(=O)O)c(CCCOc3cccc4cc(F)ccc34)c3ccc(Cl)c-2c31 (single isomer, unassigned; (+)) [Example 104]", "log10(EC50)": 2.91}
{"compound": "CCc1c2c(nn1C)COCC(O)CCn1c(C(=O)O)c(CCCOc3cccc4cc(F)ccc34)c3ccc(Cl)c-2c31 (centres unmarked) [Example 99]", "log10(EC50)": 2.28}
{"compound": "CCc1c2c(nn1C)COCC(O)CCn1c(C(=O)O)c(CCCOc3cccc4cc(F)ccc34)c3ccc(Cl)c-2c31 (centres unmarked) [Example 101]", "log10(EC50)": 3.77}
{"compound": "Cc1c2c(nn1CCCN1CCN(C)CC1)COCCCCn1c(C(=O)O)c(CCCOc3cccc4ccccc34)c3ccc(Cl)c-2c31 (single isomer, unassigned; enantiomer 2) [Example 50]", "log10(EC50)": 2.56}
{"compound": "CCc1c2c(nn1C)COCC1(CCn3c(C(=O)O)c(CCCOc4cccc5cc(F)ccc45)c4ccc(Cl)c-2c43)CC1 [Example 110]", "log10(EC50)": 2.08}
{"compound": "CCc1c2c(nn1C)COCC1CC1Cn1c(C(=O)O)c(CCCOc3cccc4cc(F)ccc34)c3ccc(Cl)c-2c31 (single isomer, unassigned; (-)) [Example 108]", "log10(EC50)": 3.80}
{"compound": "Cc1c2c(nn1C)CN(CC(F)(F)F)CCCCn1c(C(=O)O)c(CCCOc3cccc4cc(F)ccc34)c3ccc(Cl)c-2c31 (single isomer, unassigned; enantiomer 1) [Example 59]", "log10(EC50)": 2.54}
{"compound": "Cc1c2c(nn1C)CN(CC(F)(F)F)CCCCn1c(C(=O)O)c(CCCOc3cccc4cc(F)ccc34)c3ccc(Cl)c-2c31 (single isomer, unassigned; enantiomer 2) [Example 60]", "log10(EC50)": 3.88}
{"compound": "CCc1c2c(nn1C)COCC(O)CCn1c(C(=O)O)c(CCCOc3cccc4cc(F)ccc34)c3ccc(Cl)c-2c31 (centres unmarked) [Example 100]", "log10(EC50)": 2.34}
{"compound": "CCc1c2c(nn1C)CN(C)CCCn1c(C(=O)O)c(CCCOc3cccc4cc(F)ccc34)c3ccc(Cl)c-2c31 [Example 114]", "log10(EC50)": 3.63}
{"compound": "CCc1c2c(nn1C)COCC1CC1Cn1c(C(=O)O)c(CCCOc3cccc4cc(F)ccc34)c3ccc(Cl)c-2c31 (single isomer, unassigned; (+)) [Example 107]", "log10(EC50)": 2.59}
{"compound": "CCc1c2c(nn1C)CN(C)CC(F)(F)CCn1c(C(=O)O)c(CCCOc3cccc4cc(F)ccc34)c3ccc(Cl)c-2c31 (single isomer, unassigned) [Example 128]", "log10(EC50)": 3.32}
{"compound": "CCc1c2c(nn1C)CCCCCCn1c(C(=O)O)c(CCCOc3cccc4ccccc34)c3ccc(Cl)c-2c31 (single isomer, unassigned; enantiomer 2) [Example 53]", "log10(EC50)": 2.82}
{"compound": "CCc1c2c(nn1C)CCCN(C)CCn1c(C(=O)O)c(CCCOc3cccc4cc(F)ccc34)c3ccc(Cl)c-2c31 (single isomer, unassigned) [Example 116]", "log10(EC50)": 2.46}
{"compound": "CCc1c2c(nn1C)COC/C=C\\Cn1c(C(=O)O)c(CCCOc3cccc4ccccc34)c3ccc(Cl)c-2c31 (racemic) [Example 18]", "log10(EC50)": 3.04}
{"compound": "CCc1c2c(nn1C)CCCN(CC(F)F)CCn1c(C(=O)O)c(CCCOc3cccc4cc(F)ccc34)c3ccc(Cl)c-2c31 [Example 119]", "log10(EC50)": 2.04}
{"compound": "CCc1c2c(nn1C)CN(C)CCCn1c(C(=O)O)c(CCCOc3cccc4cc(F)ccc34)c3ccc(Cl)c-2c31 [Example 113]", "log10(EC50)": 2.43}
{"compound": "CCc1nn(CCN2CCOCC2)c2c1-c1c(Cl)ccc3c(CCCOc4cccc5ccccc45)c(C(=O)O)n(c13)CCCCOC2 (single isomer, unassigned; enantiomer 1) [Example 9]", "log10(EC50)": 2.43}
{"compound": "CCc1c2c(nn1C)CCCN(C)CCn1c(C(=O)O)c(CCCOc3cccc4cc(F)ccc34)c3ccc(Cl)c-2c31 (single isomer, unassigned) [Example 117]", "log10(EC50)": 3.38}
{"compound": "Cc1c2c(nn1C)COCC(F)(F)CCn1c(C(=O)O)c(CCCOc3cccc4ccccc34)c3ccc(Cl)c-2c31 (racemic) [Example 55]", "log10(EC50)": 2.78}
{"compound": "CCc1c2c(nn1C)CN(C)CCCn1c(C(=O)O)c(CCCOc3cccc4cc(F)ccc34)c3ccc(Cl)c-2c31 (racemic) [Example 112]", "log10(EC50)": 2.78}
{"compound": "CCc1nn(CCN2CCOCC2)c2c1-c1c(Cl)ccc3c(CCCOc4cccc5ccccc45)c(C(=O)O)n(c13)CCCCOC2 (racemic) [Example 8]", "log10(EC50)": 2.46}

====

system: AMO-1 cells; assay: Antiproliferation assay (CellTiter-Glo, 72 h), AMO-1; assay type: cell-based; conditions: IC50, median; AMO-1, 72 h; listed as 082; read-out: Antiproli AMO-1 [M] median
property-name: IC50 (M)

{"compound": "Cc1c2c(nn1C)COCC1CC1Cn1c(C(=O)O)c(CCCOc3cccc4ccccc34)c3ccc(Cl)c-2c31 (single isomer, unassigned) [Example 82]", "test-target": "AMO-1 cells", "property-name": "IC50", "scale-unit": "M", "recorded-value": "2.9e-06"}
